We begin with a simple list: items and their reported Response.
species: Mus musculus; assay: Ability to enhance antibody response to tetanus toxoid vaccine, IgG2a; format: functional
Give a plain numeric answer without units written out.

Below: 5 molecules and their reported Response.
1. CCCCCCCCCCC[C@H](CC(=O)NC(CO[C@@H]1OC(CO)[C@H](OP(=O)(O)O)C(OC(=O)C[C@@H](CCCCCCCCCCC)OC(=O)CCCCCCCCC)[C@@H]1NC(=O)C[C@@H](CCCCCCCCCCC)OC(=O)CCCCCCCCC)C(N)=O)OC(=O)CCCCCCCCC (some centres not stated) : 1.7
2. CCCCCCCCCCCCCC(=O)O[C@H](CCCCCCCCCCC)CC(=O)NC(CO[C@@H]1OC(CO)[C@H](OP(=O)(O)O)C(OC(=O)C[C@@H](CCCCCCCCCCC)OC(=O)CCCCCCCCCCCCC)[C@@H]1NC(=O)C[C@@H](CCCCCCCCCCC)OC(=O)CCCCCCCCCCCCC)C(=O)O (some centres not stated) : 2.1
3. CCCCCCCCCCCCCC(=O)O[C@H](CCCCCCCCCCC)CC(=O)NCCCO[C@@H]1OC(CO)[C@H](OP(=O)(O)O)C(OC(=O)C[C@@H](CCCCCCCCCCC)OC(=O)CCCCCCCCCCCCC)[C@@H]1NC(=O)C[C@@H](CCCCCCCCCCC)OC(=O)CCCCCCCCCCCCC (some centres not stated) : 5.8
4. CCCCCCCCCCCCCC(=O)O[C@H](CCCCCCCCCCC)CC(=O)N[C@@H](CO)CO[C@@H]1OC(CO)[C@H](OP(=O)(O)O)C(OC(=O)C[C@@H](CCCCCCCCCCC)OC(=O)CCCCCCCCCCCCC)[C@@H]1NC(=O)C[C@@H](CCCCCCCCCCC)OC(=O)CCCCCCCCCCCCC (some centres not stated) : 3.8
5. CCCCCCCCCCC[C@H](CC(=O)NC(CO[C@@H]1OC(CO)[C@H](OP(=O)(O)O)C(OC(=O)C[C@@H](CCCCCCCCCCC)OC(=O)CCCCC)[C@@H]1NC(=O)C[C@@H](CCCCCCCCCCC)OC(=O)CCCCC)C(=O)O)OC(=O)CCCCC (some centres not stated) : 0.3

QUERY: Look up and report measured Response for this entry: CCCCCCCCCCC[C@H](CC(=O)N[C@@H](CO[C@@H]1OC(CO)[C@H](OP(=O)(O)O)C(OC(=O)C[C@@H](CCCCCCCCCCC)OC(=O)CCCCCCCCC)[C@@H]1NC(=O)C[C@@H](CCCCCCCCCCC)OC(=O)CCCCCCCCC)C(=O)O)OC(=O)CCCCCCCCC (some centres not stated)
RESULT: 6.8

QUERY: Look up and report measured Response for this entry: CCCCCCCCCCCCCC(=O)O[C@H](CCCCCCCCCCC)CC(=O)N[C@H](CO)CO[C@@H]1OC(CO)[C@H](OP(=O)(O)O)C(OC(=O)C[C@@H](CCCCCCCCCCC)OC(=O)CCCCCCCCCCCCC)[C@@H]1NC(=O)C[C@@H](CCCCCCCCCCC)OC(=O)CCCCCCCCCCCCC (some centres not stated)
RESULT: 4.3
